studySystem: recombinant human PDGF-BB (human, UniProt P01127 82-190)
Sequence (P01127 82-190 limits assumed): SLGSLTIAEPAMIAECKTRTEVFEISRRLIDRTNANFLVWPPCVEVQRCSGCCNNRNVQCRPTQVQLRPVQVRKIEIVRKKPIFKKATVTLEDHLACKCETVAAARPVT
experimentalDetails: cell-based or functional assay
Quick list: hPDGF-BB IC50 (nM), hPDGF-BB-induced NIH-3T3 cell proliferation per entry.

Solved cases (4 shown):
hBDI-9E8.12 (antibody, V domains shown) VH: EVQLVESGGGLVQPGGSLRLSCAFSGFSLSTYGMGVGWIRQAPGKGLEWLANIWWDDDKYYNPSLKNRLTISKDTSKNQAYLQINSLRAEDTAVYYCARIESIGTTYSFDYWGQGTLVTVSS VL: DFQLTQSPSSLSASVGDRVTITCERSSGDIGDSYVSWYQQKPGKAPKNVIYADDQRPSGVPSRFSGSGSGNSASLTISSLQPEDFATYYCQSYDINIDIVFGQGTKVEIK
0.525 nM
hBDI-5H1.10 (antibody, V domains shown) VH: EVTLRESGPALVKPTQTLTLTCTFSGFSLSTFGMGVGWIRQPPGKALEWLANIWWDDDKYYNPSLKNRLTISKDTSKNQAVLTITNMDPVDTATYYCARISTGISSYYVMDAWGQGTTVTVSS VL: DFQLTQSPSSLSASVGDRVTITCERSSGDIGDTYVSWYQQKPGKAPKNVIYGNDQRPSGVPSRFSGSGSGNSATLTISSLQPEDFATYFCQSYDSDIDIVFGQGTKVEIK
< 10 nM
hBDI-5H1.9 (antibody, V domains shown) VH: EVTLRESGPALVKPTQTLTLTCTFSGFSLSTFGMGVGWIRQPPGKALEWLANIWWDDDKYYNPSLKNRLTISKDTSKNQAVLTITNMDPVDTATYYCARISTGISSYYVMDAWGQGTTVTVSS VL: DFVLTQSPDSLAVSLGERATINCERSSGDIGDTYVSWYQQKPGQPPKNVIYGNDQRPSGVPDRFSGSGSGNSATLTISSLQAEDVAVYFCQSYDSDIDIVFGGGTKVEIK
< 10 nM
hBDI-5H1.2 (antibody, V domains shown) VH: EVTLRESGPALVKPTQTLTLTCTFSGFSLSTFGMGVGWIRQPPGKALEWLANIWWDDDKYYNPSLKNRLTISKDTSKNQVVLTMTNMDPVDTATYYCARISTGISSYYVMDAWGQGTTVTVSS VL: NFMLTQPHSVSESPGKTVTISCERSSGDIGDTYVSWYQQRPGSPPTNVIYGNDQRPSGVPDRFSGSIDSSSNSASLTISGLKTEDEADYFCQSYDSDIDIVFGGGTKLTVL
< 10 nM

Incoming: Any idea what hPDGF-BB IC50 (nM), hPDGF-BB-induced NIH-3T3 cell proliferation was measured for hBDI-5H1.7 (antibody, V domains shown) VH: EVTLKESGPALVKPTQTLTLTCTFSGFSLSTFGMGVGWIRQPPGKALEWLANIWWDDDKYYNPSLKNRLTISKDTSKNQAVLTITNMDPVDTATYYCARISTGISSYYVMDAWGQGTTVTVSS VL: EIVLTQSPGTLSLSPGERATLSCERSSGDIGDTYVSWYQQKPGQAPRLLIYGNDQRPSGIPDRFSGSGSGTDFTLTISRLEPEDFAVYYCQSYDSDIDIVFGGGTKVEIK ?
Outgoing: < 10 nM

The measurements presented in this section are drawn from patent US20170015742A1.
